system: HAP1 MTAP-intact cell line; assay: SDMA in-cell western assay, HAP1 MTAP-intact; assay type: cell-based; settings: Homo sapiens, HAP1, SDMA in-cell western, HAP1 MTAP-intact; read-out: MTAP HAP1 intact IC50
parameter: IC50

1) CNc1cccc([C@H]2CC[C@H](C)CN2C(=O)C(=O)Nc2cncc(C(N)=O)c2)c1 (single isomer, unassigned) ... > 1000 nM
2) Cc1cccc2cc([C@@H]3CC[C@@H](C)CN3C(=O)C(=O)Nc3cncc(C(N)=O)c3)cnc12 (racemic) ... > 1000 nM
3) Cc1cc(NC(=O)C(=O)N2C[C@H](C)CC[C@H]2c2ccc3sccc3c2)cnc1N (single isomer, unassigned) ... > 1000 nM
4) CCc1cc(NC(=O)C(=O)N2C[C@H](C)CC[C@H]2c2ccc3sc(CCOC)nc3c2)cnc1N (single isomer, unassigned) ... > 1000 nM
5) CCc1cc(NC(=O)C(=O)N2C[C@@H](C)CC[C@@H]2c2ccc(N3CCN(C)CC3)nc2)cnc1N (single isomer, unassigned) ... 100 to 1000 nM
6) C[C@@H]1CC[C@@H](c2ccc3sc(CCN(C)C)nc3c2)N(C(=O)C(=O)Nc2cnc(N)c(C3CC3)c2)C1 (single isomer, unassigned) ... < 100 nM

* * *

molecules and their reported pIC50
biological target: PRMT5 (Homo sapiens); construct: purchased Viva (custom protein); assay: PRMT5 biochemical IC50 assay with SAM as cofactor; details: PRMT5, SAM as cofactor; read-out: SAM IC50
Sequence (O14744 whole entry): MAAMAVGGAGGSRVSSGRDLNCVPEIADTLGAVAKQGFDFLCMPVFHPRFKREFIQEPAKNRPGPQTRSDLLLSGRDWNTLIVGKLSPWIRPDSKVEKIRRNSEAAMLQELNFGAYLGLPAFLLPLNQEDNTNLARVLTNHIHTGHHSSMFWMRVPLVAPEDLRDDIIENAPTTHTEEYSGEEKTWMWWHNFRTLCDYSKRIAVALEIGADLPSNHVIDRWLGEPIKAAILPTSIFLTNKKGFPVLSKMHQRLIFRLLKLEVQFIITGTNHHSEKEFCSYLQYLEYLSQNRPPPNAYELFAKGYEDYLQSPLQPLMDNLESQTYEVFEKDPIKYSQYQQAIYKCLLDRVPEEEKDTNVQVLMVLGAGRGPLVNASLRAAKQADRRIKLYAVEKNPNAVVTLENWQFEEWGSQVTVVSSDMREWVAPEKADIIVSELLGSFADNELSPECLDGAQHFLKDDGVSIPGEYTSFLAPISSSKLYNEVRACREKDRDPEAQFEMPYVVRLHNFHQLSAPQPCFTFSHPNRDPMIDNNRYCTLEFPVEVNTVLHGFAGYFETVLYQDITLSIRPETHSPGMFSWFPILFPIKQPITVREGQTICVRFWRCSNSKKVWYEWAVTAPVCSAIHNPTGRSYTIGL
Sequence (Q9BQA1 whole entry partner): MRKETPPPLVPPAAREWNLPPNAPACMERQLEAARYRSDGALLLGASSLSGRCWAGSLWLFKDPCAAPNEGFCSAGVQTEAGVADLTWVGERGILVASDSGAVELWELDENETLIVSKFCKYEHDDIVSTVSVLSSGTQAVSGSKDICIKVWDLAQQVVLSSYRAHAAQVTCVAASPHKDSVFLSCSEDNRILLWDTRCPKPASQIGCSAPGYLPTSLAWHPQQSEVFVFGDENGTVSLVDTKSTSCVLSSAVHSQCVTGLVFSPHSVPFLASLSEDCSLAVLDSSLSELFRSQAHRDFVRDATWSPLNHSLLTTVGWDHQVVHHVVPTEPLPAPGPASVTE
pIC50: −log10 of the molar value.
parameter: pIC50

1. C[C@@H]1C[C@@H](F)[C@@H](c2ccc(F)cc2)N(C(=O)C(=O)Nc2cncc(C(N)=O)c2)C1 (racemic) ... < 6.30
2. CCc1cc(NC(=O)C(=O)N2C[C@@H](C)CC[C@@H]2c2ccc(N3CCN(C)CC3)nc2)cnc1N (single isomer, unassigned) ... 6.30 to 7.30
3. Cc1cc(NC(=O)C(=O)N2C[C@H](C)CC[C@H]2c2ccc(NS(C)(=O)=O)nc2)cnc1N (single isomer, unassigned) ... 6.30 to 7.30
4. Cc1cc(NC(=O)C(=O)N2C[C@H](C)CC[C@H]2[C@@H]2CCC[C@H](O)C2)cnc1N (single isomer, unassigned) ... < 6.30
5. CNc1cccc([C@H]2CCCCN2C(=O)C(=O)Nc2cncc(C(N)=O)c2)c1 (single isomer, unassigned) ... < 6.30
6. CCc1cc(NC(=O)C(=O)N2C[C@H](C)CC[C@H]2c2ccc3c(c2)C(=O)NC3)cnc1N (single isomer, unassigned) ... < 6.30
7. C[C@@H]1CC[C@@H](c2ccc(C(N)=O)cc2)N(C(=O)C(=O)Nc2cncc(C(N)=O)c2)C1 (racemic) ... 6.30 to 7.30
8. NC(=O)c1cncc(NC(=O)C(=O)N2CCCCC2c2cccs2)c1 (stereo not shown) ... 6.30 to 7.30
9. C[C@@H]1CC[C@@H](c2ccc3[nH]ncc3n2)N(C(=O)C(=O)Nc2cncc(C(N)=O)c2)C1 (single isomer, unassigned) ... < 6.30
10. COc1ncc(NC(=O)C(=O)N2C[C@@H](C)CC[C@@H]2c2cncs2)cc1C(N)=O (single isomer, unassigned) ... > 7.30
11. Cc1cc(NC(=O)C(=O)N2C[C@@H](C)CC[C@@H]2c2cc(F)c(F)c(F)c2)cnc1N (single isomer, unassigned) ... < 6.30
12. CNc1ccc([C@@H]2CC(F)(F)[C@@H](C)CN2C(=O)C(=O)Nc2cnc(N)c(C)c2)cn1 (racemic) ... 6.30 to 7.30
13. NC(=O)c1cncc(NC(=O)C(=O)N2CC[C@@H](O)C[C@H]2c2ccccc2)c1 (racemic) ... 6.30 to 7.30

FYI, the data here is from patent US11999727B2.
